- study-system: T1, P11-AA
- T1 chain: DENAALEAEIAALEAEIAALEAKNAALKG
- measurement-protocol: two-hybrid library CCmax;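 further: natural log of median RNA to DNA barcode read ratio; higher means stronger binding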
recorded-metric: interaction score
Form: value (number only, do not type unit).

Recorded result, KRLKQLRKRKQAKRWEEAQIEKELQAIEK [4H_APH2] , interaction score: -1.87

Form field interaction score, entry DENAALEAEIAALEAEIAALEAKNAALKG [P11-AA] : -1.19

Entry KRLKQIEKRLQAKEWEKAQLRKELQALRK [4H_APH4] , interaction score reported as -1.36

Lab book: interaction score of KRAKQLRKRLQALEWQLAQIRKELQAAEK [4H_APH3] noted as 0.988

Values were extracted from paper PMC10397247.
